Biological target: T1, Human CD3eg linker (human)
T1 construct: Single-chain construct; also called recombinant human CD3
T1 chain: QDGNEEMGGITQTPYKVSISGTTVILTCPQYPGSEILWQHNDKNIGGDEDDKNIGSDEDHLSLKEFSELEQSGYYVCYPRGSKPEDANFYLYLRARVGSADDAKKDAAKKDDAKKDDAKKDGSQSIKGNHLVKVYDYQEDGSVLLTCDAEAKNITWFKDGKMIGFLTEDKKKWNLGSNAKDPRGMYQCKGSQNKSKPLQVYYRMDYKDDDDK
Assay: SPR; fold vs parent H183/L072
Catalogue of fold change of affinity values
Enter your answer as a number in fold; do not include the unit.

Some solved cases for reference:
H183/L072 VL Q27F (antibody, name in Kabat numbering, V domains shown) VH: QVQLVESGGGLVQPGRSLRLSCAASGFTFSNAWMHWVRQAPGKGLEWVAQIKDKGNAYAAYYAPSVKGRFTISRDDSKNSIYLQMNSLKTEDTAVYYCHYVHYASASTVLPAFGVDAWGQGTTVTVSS VL: DIVMTQSPLSLPVTPGEPASISCQASFELVHMNRNTYLHWYQQKPGQAPRLLIYKVSNRFPGVPDRFSGSGSGTDFTLKISRVEAEDVGVYYCAQGTSVPFTFGQGTKLEIK ... 0.9
H183/L072 VL M27eI (antibody, name in Kabat numbering, V domains shown) VH: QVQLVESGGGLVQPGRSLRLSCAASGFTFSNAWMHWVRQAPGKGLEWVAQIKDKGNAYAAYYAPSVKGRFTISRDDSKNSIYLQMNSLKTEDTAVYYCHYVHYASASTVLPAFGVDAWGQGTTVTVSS VL: DIVMTQSPLSLPVTPGEPASISCQASQELVHINRNTYLHWYQQKPGQAPRLLIYKVSNRFPGVPDRFSGSGSGTDFTLKISRVEAEDVGVYYCAQGTSVPFTFGQGTKLEIK ... 0.9

Query: What does the data say about its fold change of affinity? Entry: H183/L072 VL A89W (antibody, name in Kabat numbering, V domains shown) VH: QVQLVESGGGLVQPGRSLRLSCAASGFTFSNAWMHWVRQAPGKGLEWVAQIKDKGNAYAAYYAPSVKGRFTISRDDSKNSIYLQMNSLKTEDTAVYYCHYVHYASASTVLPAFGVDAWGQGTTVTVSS VL: DIVMTQSPLSLPVTPGEPASISCQASQELVHMNRNTYLHWYQQKPGQAPRLLIYKVSNRFPGVPDRFSGSGSGTDFTLKISRVEAEDVGVYYCWQGTSVPFTFGQGTKLEIK
Response: 0.1
